- targetOrSystem: SIK2 (Homo sapiens, UniProt Q9H0K1)
- Construct: purchased ThermoFisher Scientific PV4792
- Sequence (Q9H0K1 whole entry): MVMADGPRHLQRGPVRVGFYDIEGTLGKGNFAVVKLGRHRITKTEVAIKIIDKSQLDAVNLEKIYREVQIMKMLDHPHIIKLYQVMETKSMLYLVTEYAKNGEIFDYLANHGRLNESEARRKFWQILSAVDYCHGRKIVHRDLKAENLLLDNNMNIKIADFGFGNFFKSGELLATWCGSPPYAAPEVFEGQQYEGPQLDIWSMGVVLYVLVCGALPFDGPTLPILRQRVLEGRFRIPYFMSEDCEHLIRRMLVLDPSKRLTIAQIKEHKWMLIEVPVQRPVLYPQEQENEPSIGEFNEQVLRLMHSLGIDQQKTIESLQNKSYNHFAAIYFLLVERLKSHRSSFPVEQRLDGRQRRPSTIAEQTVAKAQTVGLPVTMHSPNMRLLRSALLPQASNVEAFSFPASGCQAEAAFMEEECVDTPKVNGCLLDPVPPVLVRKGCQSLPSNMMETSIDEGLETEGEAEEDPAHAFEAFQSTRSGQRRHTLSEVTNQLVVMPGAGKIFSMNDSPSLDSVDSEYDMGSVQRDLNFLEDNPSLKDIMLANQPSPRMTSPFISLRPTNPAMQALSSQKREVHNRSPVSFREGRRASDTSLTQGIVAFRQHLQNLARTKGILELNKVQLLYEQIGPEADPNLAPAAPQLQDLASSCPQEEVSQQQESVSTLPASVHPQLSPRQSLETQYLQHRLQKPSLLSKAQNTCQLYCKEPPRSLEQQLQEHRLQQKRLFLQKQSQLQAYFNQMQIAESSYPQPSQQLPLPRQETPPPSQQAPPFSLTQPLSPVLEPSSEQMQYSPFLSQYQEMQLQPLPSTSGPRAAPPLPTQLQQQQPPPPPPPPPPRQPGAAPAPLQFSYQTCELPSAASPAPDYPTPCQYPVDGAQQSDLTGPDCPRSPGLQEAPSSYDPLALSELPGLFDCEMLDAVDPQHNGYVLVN
- experimentNotes: biochemical
- cond: 33P radioactive SIK kinase assay, AMARA peptide, 10 μM ATP
IC50 values by entry

Record excerpt, results attached:
COc1cc(-n2cnc3cc(-c4cnn(C)c4)ccc32)cc(OC)c1C(=O)N1CCC(OC(F)(F)F)CC1 | > 500 nM
C#CC1(O)CN(C(=O)c2c(OC)cc(-n3cnc4cc(-c5cnn(C)c5)ccc43)cc2OC)C1 | 10 to 100 nM
COc1cc(-c2cnc3cc(-c4cnn(C)c4)ccn23)cc(Cl)c1C(=O)NCC(F)(F)F | 0.01 to 10 nM
COc1cc(-c2cnc3cc(-c4cc(C)no4)ccn23)cc(OC)c1C(=O)NCC(F)(F)F | 0.01 to 10 nM
COc1cc(-n2cnc3cc(-c4cnn(C)c4)ccc32)cc(OC)c1C(=O)NC1CCCCC1OC (stereo not shown) | > 500 nM
COc1cc(-n2cnc3cc(-c4cnn(C)c4)ccc32)cc(OC)c1C(=O)N1CC(C)(C)C1 | 10 to 100 nM

Field: next compound
Record request: IC50 value, item COc1cc(-n2cnc3cc(-c4cnn(C)c4)ccc32)cc(OC)c1C(=O)N1CC(O)(C2CC2)C1
10 to 100 nM

* * *

- targetOrSystem: SIK1 (Homo sapiens, UniProt P57059)
- Construct: purchased Carna Biosciences 02-131
- Sequence (P57059 whole entry): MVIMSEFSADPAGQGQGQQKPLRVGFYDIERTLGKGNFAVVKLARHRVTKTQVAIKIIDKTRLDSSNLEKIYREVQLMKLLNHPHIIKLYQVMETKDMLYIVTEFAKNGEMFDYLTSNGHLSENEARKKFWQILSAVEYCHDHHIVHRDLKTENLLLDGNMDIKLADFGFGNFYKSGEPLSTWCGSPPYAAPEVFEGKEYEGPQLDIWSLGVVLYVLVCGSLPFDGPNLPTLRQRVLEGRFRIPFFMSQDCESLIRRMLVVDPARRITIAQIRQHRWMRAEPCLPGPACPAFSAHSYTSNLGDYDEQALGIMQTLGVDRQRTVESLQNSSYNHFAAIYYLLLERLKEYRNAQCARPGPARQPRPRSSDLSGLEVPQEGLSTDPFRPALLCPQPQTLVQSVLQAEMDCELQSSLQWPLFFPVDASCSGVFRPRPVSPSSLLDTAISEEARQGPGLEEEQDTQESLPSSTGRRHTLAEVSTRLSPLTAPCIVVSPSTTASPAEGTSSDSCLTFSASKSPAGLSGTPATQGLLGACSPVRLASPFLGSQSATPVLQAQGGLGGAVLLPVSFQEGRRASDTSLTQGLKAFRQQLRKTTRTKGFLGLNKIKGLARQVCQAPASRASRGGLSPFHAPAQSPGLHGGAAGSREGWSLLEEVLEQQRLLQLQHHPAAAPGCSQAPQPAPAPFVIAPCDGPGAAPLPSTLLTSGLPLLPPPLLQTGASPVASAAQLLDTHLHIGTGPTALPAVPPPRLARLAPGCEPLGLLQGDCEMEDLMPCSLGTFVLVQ
- experimentNotes: biochemical
- cond: ADP-Glo SIK kinase assay
Consider the following compounds and their measured IC50 readings.

Recorded results for 3 compounds are shown here.
CCOC(=O)C(C)Oc1cn2c(-c3cc(OC)c(C(=O)NC4CC4)c(OC(F)F)c3)cnc2cc1-c1cnn(C)c1 (stereo not shown) [Cpd 302] | 10 to 100 nM
CCN1Cc2cc(-n3cnc4cc(-c5cnn(C)c5)ccc43)cc(F)c2C1=O [Cpd 175] | > 500 nM
COc1cc(-n2cnc3cc(-c4cnn(C)c4)ccc32)cc(OC)c1C(=O)NC(C)(C)C [compound 76] | > 500 nM

I have this compound here, CCOC(=O)Cn1cc(-c2ccn3c(-c4cc(OC)c(C(=O)NC5CC5)c(OC(F)F)c4)cnc3c2)cn1 [Cpd 284] , and I need its recorded IC50.
0.01 to 10 nM

* * *

- targetOrSystem: SIK1 (Homo sapiens, UniProt P57059)
- Construct: purchased Carna Biosciences 02-131
- experimentNotes: biochemical
- cond: 33P radioactive SIK kinase assay, AMARA peptide, 10 μM ATP; read-out: SIK1 IC50
pIC50: −log10 of the molar value.
Measured pIC50, listed per entry.

Field: example entries. Status: answers known.
COc1cc(-n2cnc3cc(-c4ccn(C)n4)ccc32)cc(OC)c1C(=O)NCC(F)(F)F [compound 89] | 7.00 to 8.00
COc1cc(-c2cnn3cc(-c4cnn(C)c4)cnc23)cc(OC)c1C(=O)NCC(F)(F)F [Cpd 52] | 7.00 to 8.00
COc1cc(-c2cnc3cc(-c4cnn(C)c4)ccn23)cc(OC)c1C(=O)NCC(F)(F)F [Cpd 88] | 8.00 to 11.00

Please look at the following compound next.
What value of measured pIC50 is listed for CCNC(=O)c1c(OC)cc(-n2cnc3cc(-c4cccnc4)ccc32)cc1OC [compound 2] ?
6.30 to 7.00

* * *

Recorded measurements of IC50, one per entry
- targetOrSystem: SIK2 (Homo sapiens)
- Construct: purchased ThermoFisher Scientific PV4792
- experimentNotes: biochemical
- cond: 33P radioactive SIK kinase assay, AMARA peptide, 10 μM ATP

Here is how some compounds turned out for IC50.
COc1cc(-c2cnc3cc(-c4cnn(C)c4)ccn23)cc(OC)c1C(=O)NCC#N | 0.01 to 10 nM
COc1cc(-n2cnc3cc(-c4cnn(C(C)C)c4)ccc32)cc(OC)c1C(=O)NCC(F)(F)F | 0.01 to 10 nM
COc1cc(-n2cnc3cc(-c4cnn(C)c4)ccc32)cc(OC)c1C(=O)NCc1ccccn1 | 100 to 500 nM
COc1cc(-n2cnc3cc(-c4cnn(C)c4)ccc32)cc(OC)c1C(=O)Nc1ccn(C)n1 | 100 to 500 nM
COc1cc(-n2cnc3cc(-c4c[nH]cn4)ccc32)cc(OC)c1C(=O)NCC(F)(F)F | 10 to 100 nM

What measured IC50 goes with COc1cc(-n2cnc3cc(-c4cnn(C)c4)ccc32)cc(OC)c1C(=O)N1CCC(c2ccccc2)C1 (stereo not shown) ?
> 500 nM

Look up IC50 for this compound: COc1cc(-n2cnc3cc(-c4cnn(C)c4)ccc32)cc(OC)c1C(=O)N1CC(C#N)C1
10 to 100 nM

Could you share which IC50 value was measured for COc1cc(-c2cnc3cc(-c4cnn(C5CN(C(=O)OC(C)(C)C)C5)c4)ccn23)cc(OC)c1C(=O)NCC(F)(F)F ?
0.01 to 10 nM

* * *

Below is a list of entries, each paired with its recorded EC50 value.
- Tested on: LPS-induced TNFα secretion in monocyte-derived macrophages (MdM)
- experimentNotes: MdM assay: LPS-triggered TNFα (ELISA)
- Assay type: cell-based, human
- cond: Homo sapiens, Macrophage, LPS-triggered TNFα inhibition

Fill in the blank: the reported EC50 of CCNC(=O)c1c(OC)cc(-c2cnc3cc(-c4cnn(C5CCN(C(=O)OC(C)(C)C)CC5)c4)ccn23)cc1OC(F)F is ____.
0.1 to 100 nM

Consider the molecule shown here: COc1cc(-n2cnc3cc(-c4cnn(CC#N)c4)ccc32)cc(OC(F)F)c1C(=O)NC1CC1 What is its recorded EC50?
0.1 to 100 nM

Can you look up the measured EC50 of COc1cc(-n2cnc3cc(-c4cnn(CCO)c4)ccc32)cc(OC)c1C(=O)NCC(F)(F)F for me?
> 5000 nM

Dear colleague, I am looking for the recorded EC50 of the following molecule: COc1cc(-n2cnc3cc(-c4cnn(C5CN(CC#N)C5)c4)ccc32)cc(OC)c1C(=O)NCC(F)(F)F
100 to 1000 nM

// EC50 lookup, key: CNc1cc(-c2cnc3cc(-c4cnn(C)c4)ccn23)cc(OC)c1C(=O)NCC(F)(F)F
0.1 to 100 nM

EC50 lookup needed for CCNC(=O)c1c(OC)cc(-c2cnn3cc(-c4cnn(CC)c4)cnc23)cc1OC , thanks.
100 to 1000 nM

Fill in: EC50 of COc1cc(-n2cnc3cc(-c4cn(C)nn4)ccc32)cc(OC)c1C(=O)NCC(F)(F)F is ___
100 to 1000 nM

Which measured EC50 value corresponds to CCNC(=O)c1c(OC)cc(-c2cnc3cc(-c4cc(C)no4)ccn23)cc1OC(F)F ?
0.1 to 100 nM

* * *

- targetOrSystem: SIK2 (Homo sapiens, UniProt Q9H0K1)
- Construct: purchased ThermoFisher Scientific PV4792
- experimentNotes: biochemical
- cond: 33P radioactive SIK kinase assay, AMARA peptide, 10 μM ATP
// reported IC50 for each item listed

Solved cases below.
COc1cc(-n2cnc3cc(-c4cnn(C)c4)ccc32)cc(OC)c1C(=O)NC(C)C#N (stereo not shown) | 10 to 100 nM
COc1cc(-n2cnc3cc(-c4cc(C)n[nH]4)ccc32)cc(OC)c1C(=O)NCC(F)(F)F | 0.01 to 10 nM
COc1cc(-n2cnc3cc(-c4cnn(C5CN(CC#N)C5)c4)ccc32)cc(OC)c1C(=O)NCC(F)(F)F | 0.01 to 10 nM
COc1cc(-n2cnc3cc(-c4cnn(C)c4)ccc32)cc(OC)c1C(=O)NC[C@@H]1COCCO1 | 100 to 500 nM

I would be grateful if you could share the reported IC50 for COc1cc(-n2cnc3cc(-c4cnn(C)c4)ccc32)cc(OC)c1C(=O)NC1CS(=O)(=O)C1 .
10 to 100 nM

Quick check: IC50 of COc1cc(-c2cnc3cc(-c4cnn(C)c4)ccn23)cc(OC)c1C(=O)NCC(C)C ?
0.01 to 10 nM

Record request: IC50 value, item COc1cc(-n2cnc3cc(-c4cnn(C)c4)ccc32)cc(OC)c1C(=O)N1CCC1c1ccccc1 (stereo not shown)
> 500 nM

* * *

Listing: IC50 of selected compounds
- targetOrSystem: SIK1 (Homo sapiens, UniProt P57059)
- Construct: purchased Carna Biosciences 02-131
- experimentNotes: biochemical
- cond: 33P radioactive SIK kinase assay, AMARA peptide, 10 μM ATP; read-out: SIK1 IC50

Query (compound): COc1cc(-c2cnc3cc(-c4cnn(C)c4)ccn23)cc(OC)c1C(=O)NCC(C)C ; field requested: IC50
10 to 100 nM

Which measured IC50 value corresponds to COc1cc(-c2cnc3cc(-c4cn(C)cn4)ccn23)cc(OC)c1C(=O)N[C@H](C)C(F)(F)F ?
10 to 100 nM

Look up IC50: COc1cc(-n2cnc3cc(-c4cnn(C)c4)ccc32)cc(OC)c1C(=O)NC1CCS(=O)(=O)C1 (stereo not shown)
100 to 500 nM

What value of IC50 has been recorded for this entry: COc1cc(-n2cnc3cc(-c4cnn(C)c4)ccc32)cc(OC)c1C(=O)N[C@@H]1C[C@@H]1C(F)F
10 to 100 nM

// returns reported IC50 for input COc1cc(-n2cnc3cc(-c4nnc(C)[nH]4)ccc32)cc(OC)c1C(=O)NCC(F)(F)F
> 500 nM

Which measured IC50 value corresponds to COc1cc(-n2cnc3cc(-c4ccc(C#N)nc4)ccc32)cc(OC)c1C(=O)NCC(F)(F)F ?
100 to 500 nM

Returns the measured IC50 for the input compound. Input: COc1cc(-n2cnc3cc(-c4cnn(C)c4)ccc32)cc(OC)c1C(=O)N1CC(O)C1
100 to 500 nM
